# Test system: Granulozytenfraktion (PMNL-Fraktion)
# assay-overview: Granulocyte test modified after BRANDT (phagocytosis of yeast cells by PMNL)
# Format: cell-based, menschlichen Blut
# assay-conditions: summary in words
# Description: Neutrophile Granulozyten sind zusammen mit Makrophagen die wichtigsten Effektorzellen der Phagozytose und nehmen damit eine wichtige Stellung in der Infektabwehr ein. Sie stellen etwa 60-70% aller weissen Blutkörperchen im menschlichen Blut dar. Der Phagozytoseleistung dieser Granulozyten lässt sich in vitro nach einer von BRANDT (Scand. J. Haematol. Suppl 2, 1967) entwickelten und vonTYMPNER (Münchn. Med. WSchr. 8, 251, 1978) modifizierten Methodik messen. […]
reported-metric: Wirksamkeit im Granulozytentest

1. COC(=O)C1=CO[C@@H](C)[C@H]2CN3CC[C@]4(C(=O)Nc5ccccc54)[C@@H]3C[C@H]12 nicht wirksamen
2. CC[C@H]1CN2CC[C@@]3(C(=O)Nc4ccccc43)[C@@H]2C[C@@H]1/C(=C\OC)C(=O)OC wirksamen
3. CC[C@H]1CN2CC[C@]3(C(=O)Nc4ccccc43)[C@@H]2C[C@@H]1/C(=C\OC)C(=O)OC nicht wirksamen
4. COC(=O)C1=CO[C@@H](C)[C@H]2CN3CC[C@@]4(C(=O)Nc5ccccc54)[C@@H]3C[C@H]12 wirksamen
5. COC(=O)C1=CO[C@@H](C)[C@@H]2CN3CC[C@]4(C(=O)Nc5ccccc54)[C@@H]3C[C@H]12 wirksamen
6. COC(=O)C1=CO[C@@H](C)[C@@H]2CN3CC[C@@]4(C(=O)Nc5ccccc54)[C@@H]3C[C@H]12 wirksamen
